# Test system: MOLT-4 leukemia
# method-summary: NCI-60 one-dose screen, 48 h
# applied-conditions: 10 µM unless noted
Compounds without any hit were thinned out: in the full panel of roughly 83,000, 20% have a hit. Calls of active or inactive are those of the source. Rule for the calls: active = growth percent below 10; inactive = the rest.
Classes to choose from: t for active, f for inactive

Take a look at these entries with their results.
>>> category("O=C1/C(=C/c2cc(F)cc(F)c2)Cc2cc3c(cc21)OCO3")
"f"
>>> category("COc1ccc(/C=N/NC(=O)c2c(N)nn(C)c2Nc2ccccc2)cc1")
"f"
>>> category("O=C(N/N=C\\c1ccc([N+](=O)[O-])cc1)c1ccc2nc(-c3ccc(Br)cc3)[nH]c2c1")
"t"
>>> category("COc1ccc(-c2nc(C#N)c(N3CCC(S(=O)(=O)N4CCOCC4)CC3)o2)cc1")
"f"
>>> category("O=C(Nc1ccc(N=Cc2c(O)[nH]c3ccccc23)cc1)Nc1ccc(S(=O)(=O)Nc2ncccn2)cc1")
"f"
>>> category("CC(Nc1ncnc2ccc(-c3cnc(N)nc3)cc12)c1ccccc1 (centres undefined)")
"f"
>>> category("N#Cc1c(-c2ccc(F)cc2)cc(-c2c[nH]c3ccccc23)nc1-c1c[nH]c2ccccc12")
"f"
>>> category("CN1CCN(Cc2ccc(NC(=O)c3cncc(C#Cc4cnc5ccc(OCC(F)F)nn45)c3)cc2C(F)(F)F)CC1")
"t"
>>> category("O=C(Nc1cc(C(F)(F)F)cc(C(F)(F)F)c1)Nc1ccc2oc(=O)ccc2c1")
"f"
>>> category("CCS(=O)(=O)Nc1ccc(C(=O)CC2(O)C(=O)Nc3ccccc32)cc1 (centres undefined)")
"f"

Please state the recorded outcome for this compound: `NS(=O)(=O)c1ccc(CCn2c(-c3ccc(C(=O)O)cc3)nc(-c3ccccc3)c2-c2ccccc2)cc1` f

Any idea what this test logged for `O=C(NCCNc1cc(-c2cn(-c3ccccc3)nc2-c2cccc(O)c2)ccn1)Nc1cc(C(F)(F)F)cc(C(F)(F)F)c1` ? f

Assay outcome for `CN1CCN(c2ccc(Nc3nc(NCCNS(=O)(=O)c4ccc5ccccc5c4)c4sccc4n3)cc2)CC1` : what was it? f

Hey, just so you know, these numbers are from PubChem BioAssay (NCI).
